Source listed as PubChem BioAssay.

# experiment: antimalarial activity against Dd2 strain (AID 2302)
# details: P. falciparum Dd2 in RBCs, LDH growth readout, 72 h; at 2 µM; stronger effect = higher value
Think of 60% as a floor: if growth inhibition stands on it or above, it is True; beneath it, False.

Field: example entries. Status: answers known.
>>> answerlabel("CCCCNC(=O)C(C)NC(=O)c1ccc(O)c(-c2ccc(Cl)c(Cl)c2)c1 (centres undefined)")
"False"
>>> answerlabel("CC(C(=O)OCCOCn1cnc2c(=O)[nH]c(N)nc21)N(C)C(=O)OC(C)(C)C (centres undefined)")
"False"
>>> answerlabel("COc1ccc(NC(=O)c2ccc(Br)c(C)c2)cc1N1CCN(CCCc2c[nH]c3ccccc23)CC1")
"True"
>>> answerlabel("COc1ccc2nccc(NN=Cc3ccccc3F)c2c1")
"True"
>>> answerlabel("C[C@H](Cc1ccc(OCCCCCCCOc2ccc(C[C@@H](C)NC[C@H](O)c3cccc(Cl)c3)cc2)cc1)NC[C@H](O)c1cccc(Cl)c1")
"True"
>>> answerlabel("Cc1cccc2[nH]c(-c3cccc(-c4cccc(NC(=O)C(C)CN5CCN(C)CC5)c4)c3)nc12 (centres undefined)")
"True"
>>> answerlabel("O=C(Nc1cccc(C(F)(F)F)c1)c1cccc2[nH]c(C(F)(F)F)nc12")
"True"

# evaluate next
Is it the case that `COc1ccc(NC(=O)NC2CCN(CCCCCNC(=O)/C=C/c3ccc(Cl)c(Cl)c3)CC2)cc1` has growth inhibition reaching or exceeding 60%?
False
